Reported protein stability index is given for each of the following variants.
B1: CDC14A (parent)
chain: LWVQGDIFRSKLKNRPSSEGSINK

Variants of: B1
TEST_DESCRIPTION: protein stability index of a GFP-peptide fusion (GPS, HEK-293T) (PSI 1-6); higher = more stable;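 also: lentivirally expressed fusions sorted by FACS into six bins by GFP to DsRed ratio, PSI derived from sequencing read proportions per bin multiplied by bin number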
CONDITION_SUMMARY: c terminus: a fixed tail appended
Give the figure by itself; no unit, no explanation.

mutation_descriptor=S18C recorded_value=3.17
mutation_descriptor=S18P recorded_value=1.91
mutation_descriptor=K13N recorded_value=2.31
mutation_descriptor=K13D recorded_value=2.87
mutation_descriptor=I22W recorded_value=2.33
mutation_descriptor=K13G recorded_value=2.05
mutation_descriptor=P16F recorded_value=2.49
mutation_descriptor=P16C recorded_value=1.92
mutation_descriptor=I22Y recorded_value=2.85
mutation_descriptor=G5L recorded_value=2.92

Per the record, I22H has protein stability index of 3.32

Per the record, S18A has protein stability index of 2.58

Per the record, E19L has protein stability index of 1.97

Per the record, K24N has protein stability index of 2.79

Per the record, N23D has protein stability index of 2.8

Per the record, K11G has protein stability index of 3.68

Per the record, L1H has protein stability index of 3.37

Per the record, I22G has protein stability index of 3.21

Per the record, N23H has protein stability index of 2.65

Per the record, N23T has protein stability index of 3.06

Per the record, L1V has protein stability index of 2.2

Per the record, R9E has protein stability index of 3.21
